Cited source for all entries: patent US20180185504A1

measured.on: T1, human prolactin receptor (PRLR) (human, UniProt P16471 25-622)
T1 sequence: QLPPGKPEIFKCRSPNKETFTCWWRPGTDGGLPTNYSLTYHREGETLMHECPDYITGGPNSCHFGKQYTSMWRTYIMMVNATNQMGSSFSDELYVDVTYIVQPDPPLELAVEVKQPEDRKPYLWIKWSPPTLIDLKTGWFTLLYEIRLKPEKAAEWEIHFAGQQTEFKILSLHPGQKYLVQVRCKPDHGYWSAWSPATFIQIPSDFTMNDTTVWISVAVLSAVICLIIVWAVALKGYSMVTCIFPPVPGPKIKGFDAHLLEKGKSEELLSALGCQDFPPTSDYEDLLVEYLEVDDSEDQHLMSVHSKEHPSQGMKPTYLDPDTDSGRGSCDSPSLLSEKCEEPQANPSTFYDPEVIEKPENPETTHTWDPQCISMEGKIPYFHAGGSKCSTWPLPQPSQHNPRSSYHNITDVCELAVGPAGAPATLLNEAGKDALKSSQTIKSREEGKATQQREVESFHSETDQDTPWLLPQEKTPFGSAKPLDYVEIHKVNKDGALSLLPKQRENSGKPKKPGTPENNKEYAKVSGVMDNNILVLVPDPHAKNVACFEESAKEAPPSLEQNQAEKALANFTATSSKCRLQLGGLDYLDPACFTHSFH
procedure.summary: cell-based or functional assay
readout.name: IC50, cell viability, T47D cells (nM)

[[record]]
binder = "H1H6765P-mc-VC-PAB-MMAE (antibody, human IgG1, V domains shown, MMAE conjugated through cleavable mc-vc-PAB linker; attachment residues not stated) VH: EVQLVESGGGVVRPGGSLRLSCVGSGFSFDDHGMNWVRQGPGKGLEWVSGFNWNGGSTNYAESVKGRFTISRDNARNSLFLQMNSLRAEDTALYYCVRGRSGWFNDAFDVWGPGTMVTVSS VL: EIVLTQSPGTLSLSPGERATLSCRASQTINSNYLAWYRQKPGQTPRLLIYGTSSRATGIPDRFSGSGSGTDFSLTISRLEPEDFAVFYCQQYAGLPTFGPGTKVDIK"
quantitative_result = 1

[[record]]
binder = "H1H6958N2-mc-VC-PAB-MMAE (antibody, human IgG1, V domains shown, MMAE conjugated through cleavable mc-vc-PAB linker; attachment residues not stated) VH: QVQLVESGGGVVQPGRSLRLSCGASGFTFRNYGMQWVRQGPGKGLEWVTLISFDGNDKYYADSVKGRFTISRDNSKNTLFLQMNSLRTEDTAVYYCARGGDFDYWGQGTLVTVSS VL: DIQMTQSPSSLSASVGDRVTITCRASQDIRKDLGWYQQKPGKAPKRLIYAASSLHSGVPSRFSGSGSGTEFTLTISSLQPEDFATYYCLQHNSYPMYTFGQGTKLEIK"
quantitative_result = 1

[[record]]
binder = "H1H6953N-mc-VC-PAB-MMAE (antibody, human IgG1, V domains shown, MMAE conjugated through cleavable mc-vc-PAB linker; attachment residues not stated) VH: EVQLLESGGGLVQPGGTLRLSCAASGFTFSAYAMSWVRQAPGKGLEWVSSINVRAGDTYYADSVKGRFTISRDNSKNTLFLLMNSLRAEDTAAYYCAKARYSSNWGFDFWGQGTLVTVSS VL: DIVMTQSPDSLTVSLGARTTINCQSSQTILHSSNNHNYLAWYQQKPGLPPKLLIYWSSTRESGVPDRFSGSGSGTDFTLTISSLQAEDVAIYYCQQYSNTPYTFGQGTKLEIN"
quantitative_result = 1

